Test system: G-401 tumor spheroids, viability % test/control
PROTOCOL_SUMMARY: Anticancer human tumor G-401 cell line growth inhibition; active = viability on the fitted dose curve at most 10% of control; inactive = the rest;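 note: spheroids exposed to compound for 7 days; 100% = DMSO vehicle-treated spheroids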
SETUP_CONDITIONS: second compound 0.003 µM; first compound 0.316 µM; spheroids with HUVEC and MSC
Outcomes: TRUE (active), FALSE (inactive)

{"COMPOUND": "CC1COCCN1c1cc(-c2ccnn2C)c2ccnc(-c3ccn[nH]3)c2n1 (configuration not stated) + CC[C@@]1(O)C(=O)OCc2c1cc1n(c2=O)Cc2cc3c(CN(C)C)c(O)ccc3nc2-1", "CLASS_LABEL": "FALSE"}
{"COMPOUND": "Cc1cc(C)c(CNC(=O)c2cc(-c3ccc(CN4CCOCC4)cc3)cc3c2cnn3C2CCCC2)c(=O)[nH]1 + CC[C@@]1(O)C(=O)OCc2c1cc1n(c2=O)Cc2cc3c(CN(C)C)c(O)ccc3nc2-1", "CLASS_LABEL": "FALSE"}
{"COMPOUND": "COc1cc(C)[nH]c(=O)c1CN1CCc2c(Cl)cc(C(OC)C3COC3)c(Cl)c2C1=O (configuration not stated) + COc1cc2c(cc1O)CCNC21CSC2c3c(OC(C)=O)c(C)c4c(c3C(COC1=O)N1C(O)C3Cc5cc(C)c(OC)c(O)c5C(C21)N3C)OCO4", "CLASS_LABEL": "TRUE"}
{"COMPOUND": "CC1COCCN1c1cc(-c2ccnn2C)c2ccnc(-c3ccn[nH]3)c2n1 (configuration not stated) + COc1cc2c(cc1O)CCNC21CSC2c3c(OC(C)=O)c(C)c4c(c3C(COC1=O)N1C(O)C3Cc5cc(C)c(OC)c(O)c5C(C21)N3C)OCO4", "CLASS_LABEL": "TRUE"}
{"COMPOUND": "Cc1cc(C)c(CNC(=O)c2cc(-c3ccc(CN4CCOCC4)cc3)cc3c2cnn3C2CCCC2)c(=O)[nH]1 + COc1cc2c(cc1O)CCNC21CSC2c3c(OC(C)=O)c(C)c4c(c3C(COC1=O)N1C(O)C3Cc5cc(C)c(OC)c(O)c5C(C21)N3C)OCO4", "CLASS_LABEL": "TRUE"}
{"COMPOUND": "COc1ccc([C@@H](O)c2cc(-c3ncnc4cc(N5CCOCC5)ccc34)c(F)cc2Cl)nn1 + CC[C@@]1(O)C(=O)OCc2c1cc1n(c2=O)Cc2cc3c(CN(C)C)c(O)ccc3nc2-1", "CLASS_LABEL": "FALSE"}
{"COMPOUND": "[2H]c1nc(C)nc([2H])c1-c1cc(NC[C@@H](C)c2cccc3c(C(=O)NC)ccnc23)ncn1 + COc1cc2c(cc1O)CCNC21CSC2c3c(OC(C)=O)c(C)c4c(c3C(COC1=O)N1C(O)C3Cc5cc(C)c(OC)c(O)c5C(C21)N3C)OCO4", "CLASS_LABEL": "TRUE"}
{"COMPOUND": "COc1ccc([C@@H](O)c2cc(-c3ncnc4cc(N5CCOCC5)ccc34)c(F)cc2Cl)nn1 + COc1cc2c(cc1O)CCNC21CSC2c3c(OC(C)=O)c(C)c4c(c3C(COC1=O)N1C(O)C3Cc5cc(C)c(OC)c(O)c5C(C21)N3C)OCO4", "CLASS_LABEL": "TRUE"}
{"COMPOUND": "[2H]c1nc(C)nc([2H])c1-c1cc(NC[C@@H](C)c2cccc3c(C(=O)NC)ccnc23)ncn1 + CC[C@@]1(O)C(=O)OCc2c1cc1n(c2=O)Cc2cc3c(CN(C)C)c(O)ccc3nc2-1", "CLASS_LABEL": "FALSE"}
{"COMPOUND": "CC(C)n1c(=O)n(C)c2cnc3cc(F)c(-c4ccc(OCCCN5CCCCC5)nc4)cc3c21 + CC[C@@]1(O)C(=O)OCc2c1cc1n(c2=O)Cc2cc3c(CN(C)C)c(O)ccc3nc2-1", "CLASS_LABEL": "FALSE"}
{"COMPOUND": "COc1cc(C)[nH]c(=O)c1CN1CCc2c(Cl)cc(C(OC)C3COC3)c(Cl)c2C1=O (configuration not stated) + CC[C@@]1(O)C(=O)OCc2c1cc1n(c2=O)Cc2cc3c(CN(C)C)c(O)ccc3nc2-1", "CLASS_LABEL": "FALSE"}
{"COMPOUND": "CC(C)n1c(=O)n(C)c2cnc3cc(F)c(-c4ccc(OCCCN5CCCCC5)nc4)cc3c21 + COc1cc2c(cc1O)CCNC21CSC2c3c(OC(C)=O)c(C)c4c(c3C(COC1=O)N1C(O)C3Cc5cc(C)c(OC)c(O)c5C(C21)N3C)OCO4", "CLASS_LABEL": "TRUE"}

###

Tested on: G-401 tumor spheroids, viability % test/control
PROTOCOL_SUMMARY: Anticancer human tumor G-401 cell line growth inhibition;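 note: spheroids exposed to compound for 7 days; 100% = DMSO vehicle-treated spheroids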
SETUP_CONDITIONS: second compound 3.16 µM; first compound 0.1 µM; active compounds read low; spheroids with HUVEC and MSC
Procedure: Multicellular complex tumor spheroid response to DNA repair inhibitors in combination with DNA-damaging drugs This study explores the anticancer activities of DNA-damaging drugs and inhibitors of DNA damage repair, both as single agents and in combinations. […] Twenty-six patient-derived or established malignant cell lines were evaluated representing sarcoma, melanoma, small cell lung cancer (SCLC), non-small cell lung cancer (NSCLC), as well as bladder, ovarian and pancreatic cancers. […]
PARAMETER_MEASURED: viability, T/C (%)

{"COMPOUND": "CC(C)n1c(=O)n(C)c2cnc3cc(F)c(-c4ccc(OCCCN5CCCCC5)nc4)cc3c21 + Cn1nnc2c(C(N)=O)ncn2c1=O", "TARGET_OF_ASSAY": "G-401 tumor spheroids, viability % test/control", "REPORTED_RESULT": 102}
{"COMPOUND": "CC1COCCN1c1cc(-c2ccnn2C)c2ccnc(-c3ccn[nH]3)c2n1 (stereo unspecified) + Cn1nnc2c(C(N)=O)ncn2c1=O", "TARGET_OF_ASSAY": "G-401 tumor spheroids, viability % test/control", "REPORTED_RESULT": 45.6}
{"COMPOUND": "COc1ccc([C@@H](O)c2cc(-c3ncnc4cc(N5CCOCC5)ccc34)c(F)cc2Cl)nn1 + Cn1nnc2c(C(N)=O)ncn2c1=O", "TARGET_OF_ASSAY": "G-401 tumor spheroids, viability % test/control", "REPORTED_RESULT": 90.8}
{"COMPOUND": "COc1cc(C)[nH]c(=O)c1CN1CCc2c(Cl)cc(C(OC)C3COC3)c(Cl)c2C1=O (stereo unspecified) + Cn1nnc2c(C(N)=O)ncn2c1=O", "TARGET_OF_ASSAY": "G-401 tumor spheroids, viability % test/control", "REPORTED_RESULT": 63}
{"COMPOUND": "Cc1cc(C)c(CNC(=O)c2cc(-c3ccc(CN4CCOCC4)cc3)cc3c2cnn3C2CCCC2)c(=O)[nH]1 + Cn1nnc2c(C(N)=O)ncn2c1=O", "TARGET_OF_ASSAY": "G-401 tumor spheroids, viability % test/control", "REPORTED_RESULT": 104}
{"COMPOUND": "[2H]c1nc(C)nc([2H])c1-c1cc(NC[C@@H](C)c2cccc3c(C(=O)NC)ccnc23)ncn1 + Cn1nnc2c(C(N)=O)ncn2c1=O", "TARGET_OF_ASSAY": "G-401 tumor spheroids, viability % test/control", "REPORTED_RESULT": 99.3}

###

System: G-401 tumor spheroids, viability % test/control
PROTOCOL_SUMMARY: Anticancer human tumor G-401 cell line growth inhibition;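 note: spheroids exposed to compound for 7 days; 100% = DMSO vehicle-treated spheroids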
SETUP_CONDITIONS: second compound 3.16 µM; first compound 0.0949 µM; active compounds read low; spheroids with HUVEC and MSC
Recorded viability, T/C, one value per entry.

{"MOLECULE": "O=C(c1cc(Cc2n[nH]c(=O)c3ccccc23)ccc1F)N1CCN(C(=O)C2CC2)CC1 + Cn1nnc2c(C(N)=O)ncn2c1=O", "viability, T/C, %": 94.4}
{"MOLECULE": "CNCc1ccc(-c2cc(-c3nc(-c4ccc(S(=O)(=O)C(C)C)cc4)cnc3N)on2)cc1 + Cn1nnc2c(C(N)=O)ncn2c1=O", "viability, T/C, %": 104}
{"MOLECULE": "Cn1ncnc1[C@H]1c2n[nH]c(=O)c3cc(F)cc(c23)N[C@@H]1c1ccc(F)cc1 + Cn1nnc2c(C(N)=O)ncn2c1=O", "viability, T/C, %": 45.3}
{"MOLECULE": "Cc1sc2c(c1C)C(c1ccc(Cl)cc1)=NC(CC(=O)Nc1ccc(O)cc1)c1nnc(C)n1-2 (centres undefined) + Cn1nnc2c(C(N)=O)ncn2c1=O", "viability, T/C, %": 65.1}

###

System: G-401 tumor spheroids, viability % test/control
PROTOCOL_SUMMARY: Anticancer human tumor G-401 cell line growth inhibition;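 note: spheroids exposed to compound for 7 days; 100% = DMSO vehicle-treated spheroids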
SETUP_CONDITIONS: second compound 94.9 pM; first compound 1 µM; active compounds read low; spheroids with HUVEC and MSC
Recorded viability, T/C, one value per entry.
PARAMETER_MEASURED: viability, T/C (%)

{"COMPOUND": "COc1ccc([C@@H](O)c2cc(-c3ncnc4cc(N5CCOCC5)ccc34)c(F)cc2Cl)nn1 + COc1cc2c(cc1O)CCNC21CSC2c3c(OC(C)=O)c(C)c4c(c3C(COC1=O)N1C(O)C3Cc5cc(C)c(OC)c(O)c5C(C21)N3C)OCO4", "REPORTED_RESULT": 27.7}
{"COMPOUND": "[2H]c1nc(C)nc([2H])c1-c1cc(NC[C@@H](C)c2cccc3c(C(=O)NC)ccnc23)ncn1 + COc1cc2c(cc1O)CCNC21CSC2c3c(OC(C)=O)c(C)c4c(c3C(COC1=O)N1C(O)C3Cc5cc(C)c(OC)c(O)c5C(C21)N3C)OCO4", "REPORTED_RESULT": 93.1}
